Assay: Growth inhibition of human MM1S cells
Format: cell-based
Details: mm1.s

>  <structure-as-smiles>
COc1cc(/C=C/NNC(=O)CCCCCC(=O)NO)c(Br)cc1O

>  <Activity>
Non-toxic

$$$$
>  <structure-as-smiles>
O=C(CCCCC(=O)NN/C=C/c1cc(O)ccc1Br)NO

>  <Activity>
Non-toxic

$$$$
>  <structure-as-smiles>
O=C(CCCCCC(=O)NN/C=C/c1cccnc1Br)NO

>  <Activity>
Non-toxic

$$$$
>  <structure-as-smiles>
O=C(CCCCCC(=O)NN/C=C/c1cc(O)ccc1Br)NO

>  <Activity>
Non-toxic

$$$$
